Can you tell me YAP1 (% UTC) for the items I'm about to list?
- Tested on: Yap1 mRNA
- procedureDetails: Antisense inhibition of human Yap1 in SNU-449 cells by modified oligonucleotides, single dose (Example 5, RTS36584)
- Type: cell-based
- measurementSetup: Table 40 (separate experiment); SNU-449 cells, 10,000 cells per well, free uptake, 2,000 nM oligonucleotide, approx. 48 hours; RTS36584; normalized to RIBOGREEN; Yap1 mRNA relative to untreated control
Strand notation (5' to 3'): a small letter for the sugar, then the base; units joined by * are phosphorothioate-linked, units joined directly phosphodiester-linked; [ ] holds rarer units or linkages, { } end groups; capitals alone tell only the bases. e = 2'-O-(2-methoxyethyl) (MOE); k = constrained ethyl (cEt); [5mC] = 5-methylcytosine; d = 2'-deoxy (DNA)
Give your result in % UTC as a bare value.

IN: What measured YAP1 (% UTC) goes with 1198782 (antisense kT*eG*kT*dA*dA*dT*dA*dT*dT*dG*d[5mC]*dA*eA*eT*k[5mC]*kT) [Compound 1198782] ?
OUT: 61

IN: Request the reported YAP1 (% UTC) associated with 1198444 (kT*dT*dT*dA*dA*dA*dG*dT*dG*dT*dA*kT*eG*kT*e[5mC]*kA; antisense) [Compound 1198444]
OUT: 70

IN: What does the data say about its YAP1 (% UTC)? Entry: 1198438 (kT*dG*dT*dA*dT*dG*dT*d[5mC]*dA*dG*dA*kA*eG*kA*eG*kT; antisense) [Compound 1198438]
OUT: 7

IN: Can you share its YAP1 (% UTC)? I mean this substance: 958499 (kA*kT*kT*dA*dG*dA*dG*dT*dA*dT*dG*dT*dG*kG*k[5mC]*kA) [Compound 958499]
OUT: 15

IN: Fill blank: measured YAP1 (% UTC) of the substance 1198446 (kA*dA*d[5mC]*dT*dT*dT*dA*dA*dA*dG*dT*kG*eT*kA*eT*kG; antisense) [Compound 1198446] is ____.
OUT: 83

IN: Which YAP1 (% UTC) value belongs to 1198749 (kT*eT*kA*dA*dG*d[5mC]*dA*d[5mC]*dT*dT*dT*dT*eA*e[5mC]*kA*kT; antisense) [Compound 1198749] ?
OUT: 73

IN: Requested field: YAP1 (% UTC). Item: 1198723 (kA*eG*kT*dA*dT*dG*dT*dG*dG*d[5mC]*dA*dA*eT*eA*kA*kT; antisense) [Compound 1198723]
OUT: 57

IN: Which YAP1 (% UTC) is reported for this substance? 1198779 (antisense kA*eA*kT*dA*dT*dT*dG*d[5mC]*dA*dA*dT*d[5mC]*eT*eG*kT*k[5mC]) [Compound 1198779]
OUT: 49

IN: Which value of YAP1 (% UTC) has been reported for 1198445 (k[5mC]*dT*dT*dT*dA*dA*dA*dG*dT*dG*dT*kA*eT*kG*eT*k[5mC]; antisense) [Compound 1198445] in the records?
OUT: 61

IN: I would be grateful if you could share the reported YAP1 (% UTC) for 1198759 (kA*eG*kG*dA*dT*dG*d[5mC]*dA*dT*dG*dG*dT*eT*eT*kT*kT; antisense) [Compound 1198759] .
OUT: 27

IN: Sample 1198728 (kT*eA*kT*dT*dA*dG*dA*dG*dT*dA*dT*dG*eT*eG*kG*k[5mC]; antisense) [Compound 1198728] — what was its YAP1 (% UTC)?
OUT: 17

IN: # YAP1 (% UTC) lookup, item 1198765 (k[5mC]*eA*kG*dA*dT*dT*dT*dA*dG*dG*dA*dT*eG*e[5mC]*kA*kT) [Compound 1198765]
OUT: 23

* * *

Please go through the items and note down their YAP1 (% UT).
- Test system: Yap1 mRNA
- procedureDetails: Antisense inhibition of human Yap1 in SNU-449 cells by modified oligonucleotides, single dose (Example 5, RTS36584)
- Type: cell-based
- measurementSetup: Table 51; Yap1 mRNA remaining as percent of untreated control (UT), SNU-449 cells, single dose
Strand notation (5' to 3'): a small letter for the sugar, then the base; units joined by * are phosphorothioate-linked, units joined directly phosphodiester-linked; [ ] holds rarer units or linkages, { } end groups; capitals alone tell only the bases. k = constrained ethyl (cEt); [5mC] = 5-methylcytosine; d = 2'-deoxy (DNA); m = 2'-O-methyl

IN: YAP1 (% UT) for 1197275 (kA*kA*kG*dT*mA*dA*dG*dG*dT*dT*dT*d[5mC]*d[5mC]*k[5mC]*kA*kG) [Compound 1197275] ?
OUT: 30 % UT

IN: Record request: YAP1 (% UT) value, item 1074461 (kG*kA*kA*dA*dT*dT*dG*dT*d[5mC]*dT*d[5mC]*dA*dT*kG*k[5mC]*k[5mC]) [Compound 1074461]
OUT: 5 % UT

IN: Which YAP1 (% UT) reading was recorded for the substance 1197303 (k[5mC]*kT*kT*dA*mU*dA*dT*dG*dG*dT*dT*dT*dT*kG*kT*kG; antisense) [Compound 1197303] ?
OUT: 72 % UT

IN: Returns the measured YAP1 (% UT) for the input substance. Input: 1197295 (G_{ks}^{m}C_{ks}T_{ks}T_{ds}U_{ys}G_{ds}G_{ds}A_{ds}A_{ds}G_{ds}A_{ds}T_{ds}C_{ds}T_{ks}G_{ks}A_{k}; as printed in the source, key not given here) [Compound 1197295]
OUT: 24 % UT

IN: Please look up its YAP1 (% UT): 1197277 (kA*k[5mC]*kT*dA*mA*dG*dT*dA*dA*dG*dG*dT*dT*kT*k[5mC]*k[5mC]) [Compound 1197277]
OUT: 23 % UT

IN: May I ask what YAP1 (% UT) has been recorded for 1197261 (kT*k[5mC]*kT*dT*mA*dT*dA*dT*dG*dG*dT*dT*dT*kT*kG*kT) [Compound 1197261] ?
OUT: 91 % UT

* * *

- Tested on: Yap1 mRNA
- procedureDetails: Antisense inhibition of human Yap1 in A-431 cells by cEt gapmers, single dose (Example 3, RTS36584)
- Format: cell-based
- measurementSetup: Table 26; Yap1 mRNA by 3-10-3 cEt gapmers targeting SEQ ID NO.: 1, and 2; percent of untreated control
Strand notation (5' to 3'): a small letter for the sugar, then the base; units joined by * are phosphorothioate-linked, units joined directly phosphodiester-linked; [ ] holds rarer units or linkages, { } end groups; capitals alone tell only the bases. k = constrained ethyl (cEt); [5mC] = 5-methylcytosine; d = 2'-deoxy (DNA)
readoutKind: YAP1 (% UTC)
The answer is to be given in % UTC; state only the numeric part.

IN: Any idea what YAP1 (% UTC) was measured for 1075980 (k[5mC]*kA*kA*dT*dA*dT*d[5mC]*d[5mC]*dT*dA*d[5mC]*dA*d[5mC]*k[5mC]*kA*kT; antisense) [compound 1075980] ?
OUT: 43

IN: For 1076428 (kA*kT*kT*dA*dA*dA*dA*dA*dG*dA*dA*dG*d[5mC]*kA*k[5mC]*kG; antisense) [compound 1076428] , what is its reported YAP1 (% UTC)?
OUT: 53

IN: Dear colleague, I am looking for the recorded YAP1 (% UTC) of the following substance: 1074540 (kA*k[5mC]*kT*dA*dT*d[5mC]*d[5mC]*dA*d[5mC]*dA*dG*dT*dA*kA*kT*kA; antisense) [compound 1074540]
OUT: 26

IN: Could you share which YAP1 (% UTC) value was measured for 1074284 (antisense k[5mC]*kA*kA*dA*dA*d[5mC]*dG*dA*dG*dG*dG*dT*d[5mC]*kA*kA*kG) [compound 1074284] ?
OUT: 21

IN: What measured YAP1 (% UTC) goes with 1074508 (kG*kA*kG*dA*dG*dA*dG*d[5mC]*dA*dG*dA*dT*dA*kA*kT*k[5mC]; antisense) [compound 1074508] ?
OUT: 7

IN: What YAP1 (% UTC) value was documented for this substance, 1074412 (k[5mC]*kT*kG*dT*dG*dA*dA*dA*dG*dA*dG*dG*dT*k[5mC]*kA*kG; antisense) [compound 1074412] ?
OUT: 55

IN: For 1076268 (kG*kT*kA*d[5mC]*dA*dA*dT*dA*dA*dT*dG*d[5mC]*dT*kT*k[5mC]*k[5mC]; antisense) [compound 1076268] , what is its reported YAP1 (% UTC)?
OUT: 10

IN: Would you kindly share the measured YAP1 (% UTC) for 1076108 (kA*kA*kA*d[5mC]*dA*dA*dA*dA*d[5mC]*d[5mC]*dG*dG*d[5mC]*kT*kT*kT; antisense) [compound 1076108] ?
OUT: 116

IN: Field request: YAP1 (% UTC) | item: 1076172 (kT*kA*kT*dT*dA*dG*dT*dA*dA*dA*dG*dA*dG*kT*kA*k[5mC]; antisense) [compound 1076172]
OUT: 98

IN: YAP1 (% UTC) for 1075244 (kA*k[5mC]*k[5mC]*d[5mC]*dA*dA*dA*dA*dA*dT*dT*d[5mC]*dT*kG*kT*kG; antisense) [compound 1075244] ?
OUT: 76

IN: Please give the measured YAP1 (% UTC) for this substance: 1075852 (kG*kA*kT*dA*dA*dG*d[5mC]*d[5mC]*dG*dA*dA*dT*dA*kT*kG*kG; antisense) [compound 1075852]
OUT: 58

IN: Using the record for 1075660 (antisense k[5mC]*kA*kA*dA*dG*dT*dA*dA*dA*dA*dA*dA*d[5mC]*kG*kG*kT) [compound 1075660] , report its YAP1 (% UTC).
OUT: 72

IN: Which YAP1 (% UTC) is reported for this substance? 1075948 (antisense kG*kG*kA*d[5mC]*dT*dA*dA*dA*dG*dA*dA*dT*dA*k[5mC]*kA*kG) [compound 1075948]
OUT: 31

These entries and their values trace back to patent US11214803B2.
